Reference source: patent US20130295102A1

biological target: Human Factor P (human, UniProt P27918 29-469); experiment: cell-based or functional assay
Sequence (P27918 29-469 limits assumed): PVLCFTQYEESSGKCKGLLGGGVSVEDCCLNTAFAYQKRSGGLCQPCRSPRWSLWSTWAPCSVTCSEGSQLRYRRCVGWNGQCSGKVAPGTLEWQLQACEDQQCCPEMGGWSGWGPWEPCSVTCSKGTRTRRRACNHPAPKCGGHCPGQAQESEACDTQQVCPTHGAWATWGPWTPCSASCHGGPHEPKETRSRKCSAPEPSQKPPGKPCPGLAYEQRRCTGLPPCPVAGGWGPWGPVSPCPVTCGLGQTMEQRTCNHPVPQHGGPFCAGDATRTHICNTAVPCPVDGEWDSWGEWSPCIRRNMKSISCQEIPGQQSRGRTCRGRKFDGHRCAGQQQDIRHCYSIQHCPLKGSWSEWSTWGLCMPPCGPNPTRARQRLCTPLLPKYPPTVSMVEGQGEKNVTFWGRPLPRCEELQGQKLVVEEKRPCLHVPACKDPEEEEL
value-kind: Zymosan-C3b IC50 (nM), 10% serum
Please respond with the number in nM and leave the unit unwritten.

Would you please look over these solved cases?
NVS965-Q (Fab, V domains shown, NVS965 with heavy chain N30 replaced with glutamine) VH: EVQLVQSGAEVKKPGSSVKVSCKASGGTFQSYAISWVRQAPGQGLEWMGRIIPIFGTANYAQKFQGRVTITADESTSTAYMELSSLRSEDTAVYYCARHGGYSFDSWGQGTLVTVSS VL: SYVLTQPPSVSVAPGKTARISCSGDNLGSKYVDWYQQKPGQAPVLVIYSDNNRPSGIPERFSGSNSGNTATLTISGTQAMDEADYYCATYDSSPRTEVFGGGTKLTVLG : 1.64
NVS964 (Fab, V domains shown, Disulfide-bridged Fab; also called Fab NVS964) VH: EVQLVQSGAEVKKPGASVKVSCKASGYTFTSHYMHWVRQAPGQGLEWMGKINADLGDTNYAQKFQGRVTMTRDTSISTAYMELSSLRSEDTAVYYCARDGIEHGGHYYWGYLFDIWGQGTLVTVSS VL: SYELTQPPSVSVAPGQTARISCSGDSIREYYVHWYQQKPGQAPVLVIGDDTNRPSGIPERFSGSNSGNTATLTISGTQAEDEADYYCAAWDFSPAIVFGGGTKLTVLG : 1.54
NVS966 (Fab, V domains shown, Disulfide-bridged Fab; also called Fab NVS966) VH: EVQLVQSGAEVKKPGESLKISCKGSGYSFTNYWIGWVRQMPGKGLEWMGRIDPGESLTNYAPSFQGQVTISADKSISTAYLQWSSLKASDTAMYYCARTGVADVDMPFAHWGQGTLVTVSS VL: SYVLTQPPSVSVAPGKTARISCSGDNLGSYYVNWYQQKPGQAPVLVIYGDSERPSGIPERFSGSNSGNTATLTISRAQAGDEADYYCGSWDITSFVFGGGTKLTVLG : 1.66

Challenge: What Zymosan-C3b IC50 (nM), 10% serum value was documented for this binder, NVS965 (Fab, V domains shown, Disulfide-bridged Fab; also called Fab NVS965) VH: EVQLVQSGAEVKKPGSSVKVSCKASGGTFNSYAISWVRQAPGQGLEWMGRIIPIFGTANYAQKFQGRVTITADESTSTAYMELSSLRSEDTAVYYCARHGGYSFDSWGQGTLVTVSS VL: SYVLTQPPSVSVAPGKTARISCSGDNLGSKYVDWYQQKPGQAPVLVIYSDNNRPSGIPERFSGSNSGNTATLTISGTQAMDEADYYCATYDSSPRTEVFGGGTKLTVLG ?
Response given: 1.54

Challenge: What Zymosan-C3b IC50 (nM), 10% serum value was documented for this binder, NVS962 (Fab, V domains shown, also called Fab NVS962) VH: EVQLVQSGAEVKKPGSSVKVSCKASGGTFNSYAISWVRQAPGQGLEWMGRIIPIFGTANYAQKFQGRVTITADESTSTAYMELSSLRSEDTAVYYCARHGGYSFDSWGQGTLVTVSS VL: SYELTQPPSVSVAPGQTARISCSGDNLGSKYVDWYQQKPGQAPVLVIYSDNNRPSGIPERFSGSNSGNTATLTISGTQAEDEADYYCQTYTSGNNYLVFGGGTKLTVLG ?
Response given: 2.63

Challenge: What Zymosan-C3b IC50 (nM), 10% serum value was documented for this binder, NVS962-T (Fab, V domains shown, NVS962 with heavy chain N30 replaced with threonine; also called NSV962-T) VH: EVQLVQSGAEVKKPGSSVKVSCKASGGTFTSYAISWVRQAPGQGLEWMGRIIPIFGTANYAQKFQGRVTITADESTSTAYMELSSLRSEDTAVYYCARHGGYSFDSWGQGTLVTVSS VL: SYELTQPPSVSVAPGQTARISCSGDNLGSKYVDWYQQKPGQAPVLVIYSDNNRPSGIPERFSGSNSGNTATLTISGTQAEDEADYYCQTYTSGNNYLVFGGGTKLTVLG ?
Response given: 1.75

Challenge: What Zymosan-C3b IC50 (nM), 10% serum value was documented for this binder, NVS965-T (Fab, V domains shown, NVS965 with heavy chain N30 replaced with threonine) VH: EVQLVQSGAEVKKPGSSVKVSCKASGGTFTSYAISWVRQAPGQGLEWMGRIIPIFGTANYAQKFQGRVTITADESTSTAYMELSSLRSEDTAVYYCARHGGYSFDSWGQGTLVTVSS VL: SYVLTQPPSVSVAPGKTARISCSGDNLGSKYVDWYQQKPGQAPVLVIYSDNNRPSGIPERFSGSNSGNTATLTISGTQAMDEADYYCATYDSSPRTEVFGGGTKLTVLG ?
Response given: 0.77

Challenge: What Zymosan-C3b IC50 (nM), 10% serum value was documented for this binder, NVS965-S (Fab, V domains shown, NVS965 with heavy chain N30 replaced with serine) VH: EVQLVQSGAEVKKPGSSVKVSCKASGGTFSSYAISWVRQAPGQGLEWMGRIIPIFGTANYAQKFQGRVTITADESTSTAYMELSSLRSEDTAVYYCARHGGYSFDSWGQGTLVTVSS VL: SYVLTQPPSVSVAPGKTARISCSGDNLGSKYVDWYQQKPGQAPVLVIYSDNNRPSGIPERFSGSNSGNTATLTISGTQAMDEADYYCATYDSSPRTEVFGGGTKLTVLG ?
Response given: 1.39
